Hello, the source for this data is patent US5476847A, in case you need it.

# system_under_test: ECE (Cavia porcellus)
# Construct: tissue Keystone Biologicals, Cleveland, Ohio; host or cells: frozen guinea pig lungs; lubrol PX-treated lung membranes
# Sequence (P97739 whole entry): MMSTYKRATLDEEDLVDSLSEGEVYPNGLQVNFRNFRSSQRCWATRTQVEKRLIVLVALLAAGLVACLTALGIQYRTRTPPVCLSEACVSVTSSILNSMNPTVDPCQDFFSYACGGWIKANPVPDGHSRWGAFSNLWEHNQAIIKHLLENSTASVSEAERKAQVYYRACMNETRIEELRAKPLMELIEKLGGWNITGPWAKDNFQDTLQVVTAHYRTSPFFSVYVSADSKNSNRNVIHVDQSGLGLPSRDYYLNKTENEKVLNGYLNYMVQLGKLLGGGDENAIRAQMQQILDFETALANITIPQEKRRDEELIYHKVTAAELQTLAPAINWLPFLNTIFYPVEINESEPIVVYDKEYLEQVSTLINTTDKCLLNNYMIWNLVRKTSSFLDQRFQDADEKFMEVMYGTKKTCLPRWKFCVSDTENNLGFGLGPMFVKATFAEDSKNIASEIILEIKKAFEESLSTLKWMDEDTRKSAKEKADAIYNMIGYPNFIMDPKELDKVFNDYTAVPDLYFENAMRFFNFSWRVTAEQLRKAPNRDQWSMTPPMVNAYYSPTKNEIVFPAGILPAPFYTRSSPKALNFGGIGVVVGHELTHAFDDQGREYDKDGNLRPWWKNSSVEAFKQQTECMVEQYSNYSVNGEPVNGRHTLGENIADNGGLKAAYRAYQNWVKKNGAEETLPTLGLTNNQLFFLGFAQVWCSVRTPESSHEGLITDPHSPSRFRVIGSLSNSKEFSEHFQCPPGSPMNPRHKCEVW
# measurement_description: In vitro ECE assay (inhibition of [125I]BET-1 to [125I]ET-1 conversion, lubrol-treated guinea pig lung membrane)
# Assay type: biochemical
# condition_summary: L-GPLGM, 2 h preincubation at 4° C., 500 pM [125I]BET-1, table of examples, read-out: ECE IC50
Each entry below carries its recorded IC50.
// note: answer is a bare numeric in nM

// below: answered compounds
compound: NC(=O)c1ccc(CC(NC(=O)OCc2ccccc2)P(=O)(O)CC2(C(=O)N[C@@H](Cc3c[nH]c4ccccc34)C(=O)O)CCCC2)cc1 (some centres unmarked)
IC50 (nM): 290

compound: CS(=O)(=O)N[C@@H](CCCCNC(=O)OCc1ccccc1)C(=O)NC(Cc1ccc2ccccc2c1)P(=O)(O)CC1(C(=O)N[C@@H](Cc2c[nH]c3ccccc23)C(=O)O)CCCC1 (some centres unmarked)
IC50 (nM): 55

compound: O=C(NC(Cc1ccc(C(=O)O)cc1)P(=O)(O)CC1(C(=O)N[C@@H](Cc2c[nH]c3ccccc23)C(=O)O)CCCC1)OCc1ccccc1 (some centres unmarked)
IC50 (nM): 490

Consider the compound CC(C)CC(CP(=O)(O)C(CC(C)C)NC(=O)[C@H](CCCCNC(=O)OCc1ccccc1)NS(C)(=O)=O)C(=O)N[C@@H](Cc1c[nH]c2ccccc12)C(=O)O (single isomer, unassigned) [Example 10A] and give its measured IC50. 40

Consider the compound `NCc1ccc(C(=O)N[C@@H](Cc2ccccc2)P(=O)(O)CC2(C(=O)N[C@@H](Cc3c[nH]c4ccccc34)C(=O)O)CCCC2)cc1` and give its measured IC50. 90
